Item-by-item account of PBM 8-mer E-score
test system: 2Sb-muMax20 (muMax20 with two 1,3-bis(methyl)benzene Cys staples, A13C/A17C and Q88C/A92C, C-terminal Lys); assay: PBM 8-mer E-score (E-score (rank enrichment, -0.5 to 0.5)); higher = stronger preferential binding
Over roughly 33,000 sequences, “E-score (rank enrichment, -0.5 to 0.5)” has its median near -0.0028; the highest 2% begin near 0.23. Only a selection was taken, and the highest values are over-represented in it overall.
I'd appreciate a reply containing only the number, no unit.

-- ask // Input: ATACACAC . Output its PBM 8-mer E-score only.
-- reply 0.0901

-- ask // Input: ACATATCA . Output its PBM 8-mer E-score only.
-- reply 0.269

-- ask // Input: CGATATAC . Output its PBM 8-mer E-score only.
-- reply 0.156

-- ask // Input: ATACACAT . Output its PBM 8-mer E-score only.
-- reply 0.244

-- ask // Input: ACATATCG . Output its PBM 8-mer E-score only.
-- reply 0.0421

###

system: 2Sb-muMax20 (muMax20 with two 1,3-bis(methyl)benzene Cys staples, A13C/A17C and Q88C/A92C, C-terminal Lys); assay: PBM 8-mer E-score (E-score (rank enrichment, -0.5 to 0.5)); higher = stronger preferential binding
Over roughly 33,000 sequences, “E-score (rank enrichment, -0.5 to 0.5)” has its median near -0.0028; the highest 2% begin near 0.23. This is one part of a sample in which the highest values are shown more often than they occur.
Property Measured: PBM 8-mer E-score
I'd appreciate a reply containing only the number, no unit.

Sample records with PBM 8-mer E-score:
AAGTGGGG :: 0.264
TATAATCA :: 0.263
ACGTGGCC :: -0.0906
ACGTGGCT :: 0.291
ATTAGTTA :: 0.233
GTAAGTTA :: 0.0157
CGATTGCA :: -0.00806
GATAACTA :: 0.237
CATAACCA :: 0.16
GATAATCA :: 0.188

-- ask // Input: AGATGATC . Output its PBM 8-mer E-score only.
-- reply -0.147

-- ask // Input: GAGTGCAC . Output its PBM 8-mer E-score only.
-- reply -0.0155

-- ask // Input: GAAGCGAC . Output its PBM 8-mer E-score only.
-- reply -0.0841

###

Item-by-item account of PBM 8-mer E-score
test system: 2Sb-muMax20 (muMax20 with two 1,3-bis(methyl)benzene Cys staples, A13C/A17C and Q88C/A92C, C-terminal Lys); experiment: PBM 8-mer E-score (E-score (rank enrichment, -0.5 to 0.5)); higher = stronger preferential binding
Whole data set: some 33,000 sequences, median “E-score (rank enrichment, -0.5 to 0.5)” near -0.0028, cut for the highest 2% near 0.23. The entries come from a sample that favours the highest values as a whole.

AACTGTCG :: -0.138
GCACCCCA :: 0.24
CCGTATGC :: -0.07
CCACCCCC :: -0.0738
CATACGTA :: 0.302

-- ask // Input: CACCGAGG . Output its PBM 8-mer E-score only.
-- reply -0.221

-- ask // Input: ATACTAAC . Output its PBM 8-mer E-score only.
-- reply 0.191

-- ask // Input: TCACCCAA . Output its PBM 8-mer E-score only.
-- reply 0.154

-- ask // Input: ACGTATGC . Output its PBM 8-mer E-score only.
-- reply 0.238

-- ask // Input: GATACGTA . Output its PBM 8-mer E-score only.
-- reply 0.081

-- ask // Input: GATGGACC . Output its PBM 8-mer E-score only.
-- reply -0.139

###

tested on: 2Sb-muMax20 (muMax20 with two 1,3-bis(methyl)benzene Cys staples, A13C/A17C and Q88C/A92C, C-terminal Lys); assay: PBM 8-mer E-score (E-score (rank enrichment, -0.5 to 0.5)); higher = stronger preferential binding
In all, about 33,000 sequences were measured (“E-score (rank enrichment, -0.5 to 0.5)”: median about -0.0028, highest 2% from about 0.23 on). The sample as a whole holds a higher share of the highest values than the screen did.
Property Measured: PBM 8-mer E-score
I'd appreciate a reply containing only the number, no unit.

GGTTCGCA :: -0.146

Now for a further sequence.
-- ask // Input: CTCCCGGC . Output its PBM 8-mer E-score only.
-- reply -0.268

###

tested on: 2Sb-muMax20 (muMax20 with two 1,3-bis(methyl)benzene Cys staples, A13C/A17C and Q88C/A92C, C-terminal Lys); assay: PBM 8-mer E-score (E-score (rank enrichment, -0.5 to 0.5)); higher = stronger preferential binding
The full ranking holds about 33,000 sequences; the median of “E-score (rank enrichment, -0.5 to 0.5)” is about -0.0028, and the highest 2% start at about 0.23. The list comes from a sample in which the highest values are over-represented; it also holds close analogues and randomly drawn sequences.
Property Measured: PBM 8-mer E-score
I'd appreciate a reply containing only the number, no unit.

CCACCCTA :: 0.189
GTAGGGGA :: 0.24
ATCTGTCC :: 0.0828
CCTGAAAC :: -0.0931

Now for a further sequence.
-- ask // Input: TCACGTAA . Output its PBM 8-mer E-score only.
-- reply -0.031

###

tested on: 2Sb-muMax20 (muMax20 with two 1,3-bis(methyl)benzene Cys staples, A13C/A17C and Q88C/A92C, C-terminal Lys); assay: PBM 8-mer E-score (E-score (rank enrichment, -0.5 to 0.5)); higher = stronger preferential binding
Over roughly 33,000 sequences, “E-score (rank enrichment, -0.5 to 0.5)” has its median near -0.0028; the highest 2% begin near 0.23. The sample as a whole holds a higher share of the highest values than the screen did.
Property Measured: PBM 8-mer E-score
I'd appreciate a reply containing only the number, no unit.

Sample records with PBM 8-mer E-score:
CACGCGTG :: 0.303
GACTGAGC :: -0.267
AACACAAA :: 0.25

-- ask // Input: AGACCCCA . Output its PBM 8-mer E-score only.
-- reply 0.283

-- ask // Input: AAACCCTA . Output its PBM 8-mer E-score only.
-- reply 0.244

-- ask // Input: AAGCCAAA . Output its PBM 8-mer E-score only.
-- reply -0.0671

-- ask // Input: AAGTATGT . Output its PBM 8-mer E-score only.
-- reply 0.0914

-- ask // Input: AACCCTCT . Output its PBM 8-mer E-score only.
-- reply -0.0379

###

test system: 2Sb-muMax20 (muMax20 with two 1,3-bis(methyl)benzene Cys staples, A13C/A17C and Q88C/A92C, C-terminal Lys); experiment: PBM 8-mer E-score (E-score (rank enrichment, -0.5 to 0.5)); higher = stronger preferential binding
The full ranking holds about 33,000 sequences; the median of “E-score (rank enrichment, -0.5 to 0.5)” is about -0.0028, and the highest 2% start at about 0.23. The full list was thinned out, with the highest values kept by preference.
Item-by-item account of PBM 8-mer E-score
I'd appreciate a reply containing only the number, no unit.

CAATAATG :: 0.0644
GTGAGACA :: 0.0265
CTAAGTGA :: -0.204
AAGGCTAC :: -0.168
CACCAGAA :: -0.00913
CCATGTAG :: 0.172
AATTGTAG :: 0.0147
CAATAAAC :: 0.0373

-- ask // Input: GGCTATTA . Output its PBM 8-mer E-score only.
-- reply 0.116

-- ask // Input: ACAATACT . Output its PBM 8-mer E-score only.
-- reply 0.098

-- ask // Input: CAATAATA . Output its PBM 8-mer E-score only.
-- reply 0.233

-- ask // Input: ACAATACC . Output its PBM 8-mer E-score only.
-- reply 0.247

-- ask // Input: GCATAACC . Output its PBM 8-mer E-score only.
-- reply 0.0156

###

system: 2Sb-muMax20 (muMax20 with two 1,3-bis(methyl)benzene Cys staples, A13C/A17C and Q88C/A92C, C-terminal Lys); assay: PBM 8-mer E-score (E-score (rank enrichment, -0.5 to 0.5)); higher = stronger preferential binding
In all, about 33,000 sequences were measured (“E-score (rank enrichment, -0.5 to 0.5)”: median about -0.0028, highest 2% from about 0.23 on). The sample as a whole holds a higher share of the highest values than the screen did.
// label = criterion met if PBM 8-mer E-score is not less than 0.005, otherwise criterion not met

Example entries and their recorded answers appear below.
CTGTGCGC :: criterion met
GCGGCGAC :: criterion not met
AATCACAG :: criterion not met
ATGGGGCC :: criterion not met
AATCACGA :: criterion not met
AGGGAAAT :: criterion met

-- ask Is reported PBM 8-mer E-score greater than or equal to 0.005 here: ACGCGGTC
-- reply criterion not met

-- ask Is reported PBM 8-mer E-score greater than or equal to 0.005 here: TAAGGCTA
-- reply criterion met

-- ask Is reported PBM 8-mer E-score greater than or equal to 0.005 here: CCGATCGG
-- reply criterion not met

-- ask Is reported PBM 8-mer E-score greater than or equal to 0.005 here: ACTCAGAA
-- reply criterion met

-- ask Is reported PBM 8-mer E-score greater than or equal to 0.005 here: ATCGTAAT
-- reply criterion met

-- ask Is reported PBM 8-mer E-score greater than or equal to 0.005 here: AAAATCTA
-- reply criterion not met

-- ask Is reported PBM 8-mer E-score greater than or equal to 0.005 here: AATCACAA
-- reply criterion met

-- ask Is reported PBM 8-mer E-score greater than or equal to 0.005 here: CCACTTAA
-- reply criterion met

-- ask Is reported PBM 8-mer E-score greater than or equal to 0.005 here: AGGGAAAG
-- reply criterion met

-- ask Is reported PBM 8-mer E-score greater than or equal to 0.005 here: AGGGAAAC
-- reply criterion not met
